- study.system: T1, human CD3 epsilon (Acro Cat #CDE-H5223) (human, UniProt P07766 23-126)
- T1 construct: Bought recombinant protein; also called rhCD3E
- T1 sequence (P07766 23-126 limits assumed): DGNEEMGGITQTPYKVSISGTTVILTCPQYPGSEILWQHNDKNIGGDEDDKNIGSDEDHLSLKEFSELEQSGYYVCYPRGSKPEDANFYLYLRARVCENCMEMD
- protocol.description: SPR (Biacore), antibody captured, human CD3 epsilon analyte
Below, each of the binders is paired with its reported pKd value.
Scale note: pKd = -log10(concentration in M).

Worked examples follow.
binder: 2037-B10_Hc-F104D (antibody, human IgG1, lambda, V domains shown, human IgG1, lambda; also called SRP 2037 F104D; 2037-B10_VH-F104D) VH: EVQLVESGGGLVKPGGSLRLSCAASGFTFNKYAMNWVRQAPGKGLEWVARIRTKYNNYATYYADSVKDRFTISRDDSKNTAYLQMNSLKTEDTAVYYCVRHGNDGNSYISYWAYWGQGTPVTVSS VL: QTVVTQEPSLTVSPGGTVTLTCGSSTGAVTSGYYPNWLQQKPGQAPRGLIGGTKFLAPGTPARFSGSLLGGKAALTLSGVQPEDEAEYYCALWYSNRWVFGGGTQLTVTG
pKd: 8.47
--
binder: SRP 2037-B10 Y55D/R97D (antibody, human IgG1, lambda, V domains shown, human IgG1, lambda) VH: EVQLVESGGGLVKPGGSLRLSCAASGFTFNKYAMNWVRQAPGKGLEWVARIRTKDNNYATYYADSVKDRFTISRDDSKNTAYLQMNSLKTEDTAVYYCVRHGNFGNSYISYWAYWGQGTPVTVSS VL: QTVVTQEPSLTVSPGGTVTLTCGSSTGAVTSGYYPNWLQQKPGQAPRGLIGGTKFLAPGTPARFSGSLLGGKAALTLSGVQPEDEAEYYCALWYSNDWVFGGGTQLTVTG
pKd: 8.29

We now examine a further binder.
Asked: Recorded pKd for SRP 2037-B10 Y55D/LC6 (antibody, human IgG1, kappa, V domains shown, human IgG1, kappa) VH: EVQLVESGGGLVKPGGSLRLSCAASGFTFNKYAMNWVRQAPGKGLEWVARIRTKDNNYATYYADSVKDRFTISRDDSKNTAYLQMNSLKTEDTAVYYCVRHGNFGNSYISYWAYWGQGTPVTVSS VL: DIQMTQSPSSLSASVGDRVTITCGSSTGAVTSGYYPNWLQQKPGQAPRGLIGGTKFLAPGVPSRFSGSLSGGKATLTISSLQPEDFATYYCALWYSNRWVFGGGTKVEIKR , please?
Given back: 8.41
